Tested on: XF498
Test: NCI tumour cell line growth inhibition, 48 h
Activity calls are given as the source filed them. No stated cut-off is given here; in the data, active = GI50 up to about 1.1 µM and inactive = higher.
Below, each entry is listed with its recorded GI50.
Measurement Label: GI50

Compound: CCOC(=O)C1=C(C)N(NC(=O)c2ccccc2)C2(O)CCCC12C(=O)OCC (stereo unspecified)
System Under Test: XF498
Result: 55 µM (inactive)

Compound: COc1cc(/C=C2\CCC(C)(CN(C)C)C2=O)cc(OC)c1OC (stereo unspecified)
System Under Test: XF498
Result: > 100 µM (inactive)

Compound: COC(=O)/C=C1\CCC(C)O1 (stereo unspecified)
System Under Test: XF498
Result: > 100 µM (inactive)

Compound: O=C(c1ccccc1)c1c(CC(O)c2ccccn2)n(C(=O)c2ccccc2)c2ccccc12 (stereo unspecified)
System Under Test: XF498
Result: 20.4 µM (inactive)

Compound: O=c1c2cc(Br)ccc2nc(CNc2ccccc2)n1-c1ccccc1
System Under Test: XF498
Result: 15.7 µM (inactive)

Compound: O=C(O)C1Cc2[nH]c3ccccc3c2C2CCCC12 (stereo unspecified)
System Under Test: XF498
Result: > 100 µM (inactive)

Compound: O=C1C(=O)N(c2cc(Cl)ccc2Cl)C(=O)C(=O)C1c1nc2ccccc2o1
System Under Test: XF498
Result: > 100 µM (inactive)

Compound: CCC1=NC(CO)[C@H](c2ccccc2)O1 (stereo partly specified)
System Under Test: XF498
Result: > 100 µM (inactive)

Compound: COc1cccc(-c2nccc3c(OCc4ccccc4)c(OC)c(OC)cc23)c1
System Under Test: XF498
Result: > 100 µM (inactive)

Compound: COc1ccc(C2=CC3CCC2C3)cc1 (stereo unspecified)
System Under Test: XF498
Result: > 100 µM (inactive)

Compound: CN(NC1OC(CO)C(O)C(O)C1O)c1ccccc1 (stereo unspecified)
System Under Test: XF498
Result: 16.4 µM (inactive)

###

Tested on: SF-268
Test: NCI tumour cell line growth inhibition, 48 h
The source made the active and inactive calls. Cut-off read from the data, not from the text of the source: active = GI50 up to about 1.1 µM and inactive = higher.
Below, each entry is listed with its recorded GI50.

Compound: COc1cc(/C=N/N=C(\N)NO)cc(OC)c1OC
GI50: 31.1 µM (inactive)
//
Compound: COc1cc(/C=C2\N=C(c3ccccc3)N(c3ccc(S(=O)(=O)Nc4nccs4)cc3)C2=O)ccc1O
GI50: 51.9 µM (inactive)
//
Compound: C=C1C[C@]23C[C@@]1(O)CC[C@H]2[C@@]12C=C[C@H](O)[C@@](C)(C(=O)O1)[C@H]2[C@@H]3C(=O)O [GIBBERELLIN A3]
GI50: > 100 µM (inactive)
//
Compound: Cc1ccc(S(=O)(=O)N2CCN(S(=O)(=O)c3ccc(C)cc3)CCN(S(=O)(=O)c3ccc(C)cc3)Cc3cc(C#N)c(C#N)cc3CN(S(=O)(=O)c3ccc(C)cc3)CC2)cc1
GI50: > 100 µM (inactive)

###

Test system: HOP-62
Test: NCI tumour cell line growth inhibition, 48 h
The source made the active and inactive calls. No stated cut-off is given here; in the data, active = GI50 up to about 1.1 µM and inactive = higher.
Below, each entry is listed with its recorded GI50.
Measurement Label: GI50

Molecule: S=c1nc2c(c[nH]1)C1c3ccccc3C2c2ccccc21
Result: > 100 µM (inactive)
//
Molecule: Cc1nc(N)nn1C1OCC(O)C(O)C1O (stereo not given)
Result: > 100 µM (inactive)
//
Molecule: O=C1C=C(Nc2ccccc2C(=O)CC(=O)C(=O)Nc2ccc(Cl)c(Cl)c2)c2ccccc2C1=O
Result: > 100 µM (inactive)
//
Molecule: Cc1c(-c2nc3ccccc3[nH]2)c(=O)n(-c2ccccc2)n1C
Result: > 100 µM (inactive)
//
Molecule: Cn1cc(NC(=O)Nc2cc(C(=O)Nc3cc(C(=O)Nc4ccc5cc(S(=O)(=O)O)cc(S(=O)(=O)O)c5c4)n(C)c3)n(C)c2)cc1C(=O)Nc1cc(C(=O)Nc2ccc3cc(S(=O)(=O)O)cc(S(=O)(=O)O)c3c2)n(C)c1
Result: > 100 µM (inactive)
//
Molecule: O=c1c2cccnc2ncn1CCN1CCCC1
Result: > 100 µM (inactive)
//
Molecule: Cn1cc(-c2ccc3c4ccccc4n(C)c3c2)c2ccccc21
Result: > 100 µM (inactive)
//
Molecule: ClC1=C(Cc2ccccc2)Cc2ccc3c(c21)CCC3
Result: 34.1 µM (inactive)
//
Molecule: COc1ccc2c([nH]c3c(O)c(-c4c(C)cc5c([nH]c6c(CC=C(C)C)c(OC)ccc65)c4O)c(C)cc32)c1CC=C(C)C
Result: > 100 µM (inactive)
//
Molecule: COc1cc(/C=N/N=C(\N)NO)cc(OC)c1OC
Result: 27.4 µM (inactive)

###

Test system: Malme-3M
Test: NCI tumour cell line growth inhibition, 48 h
Activity calls are given as the source filed them. Rule as the data show it: active = GI50 up to about 1.1 µM and inactive = higher. Where a SMILES comes first, the peptide text is derived from it. The star is where a group is joined. Cbz = O=C(OCc1ccccc1)*; NHNH2 = NN*

Compound: COC(=O)C[C@H](COCc1ccccc1)NC(=O)C[C@H](COCc1ccccc1)NC(=O)OC(C)(C)C
GI50: 36.6 µM (inactive)

Compound: COC(=O)C1=C(c2ccc(OC)c(OC)c2)OC(c2cc(OC)c(OC)c(OC)c2)C1 (stereo not given)
GI50: 42.4 µM (inactive)

Compound: O=C1CCCn2c(nc3ccccc32)N1
GI50: > 100 µM (inactive)

Compound: CSC(=S)N/N=C(\C)c1ccc(S(=O)(=O)N(C)c2ccccc2)cc1
GI50: 2.07 µM (inactive)

Compound: Cc1cn(C2CC(N(O)Cc3ccccc3)C(CO[Si](C)(C)C(C)(C)C)O2)c(=O)[nH]c1=O (stereo not given)
GI50: 17.9 µM (inactive)

Compound: CC(C)=CCC[C@@H](C)C1=C(N)C(=O)C(C)=C(O)C1=O
GI50: 56.9 µM (inactive)

Compound: CC1(C)CCc2cc3c(cc2O1)OCCC3=O
GI50: > 100 µM (inactive)

Compound: O=c1[nH]nc(-c2ccccc2)n1/N=C/c1ccco1
GI50: > 100 µM (inactive)

Compound: BrC1=CCC23CC=C(Br)[C@H]4CC2(COC3)C[C@@H]1O4 (stereo not given in full)
GI50: > 100 µM (inactive)

Compound: OCCc1ccsc1-c1sc(-c2cc(CCO)c(-c3sc(-c4cc(CCO)c(-c5sccc5CCO)s4)cc3CCO)s2)cc1CCO
GI50: 1.14 µM (inactive)

Compound: O=C1C2Cc3ccccc3CN2C(=O)N1CN1CCN(CN2C(=O)C3Cc4ccccc4CN3C2=O)CC1 (stereo not given)
GI50: > 100 µM (inactive)

Compound: CCOC(=O)CCC(NC(=O)OCc1ccccc1)C(=O)NC(CCC(=O)OCC)C(=O)NN (stereo not given) (Cbz-Glu(OEt)-Glu(OEt)-NHNH2; configuration not given here)
GI50: > 100 µM (inactive)

Compound: O=c1c2c(F)c(F)c(F)c(F)c2sc2nccn12
GI50: 17.3 µM (inactive)

Compound: Cn1c(=O)c2c(ncn2CCSS(=O)(=O)O)n(C)c1=O
GI50: > 100 µM (inactive)

Compound: COc1cc([C@@H]2c3cc4c(cc3[C@@H](NC(=O)c3cccc(N)c3)C3COC(=O)[C@@H]32)OCO4)cc(OC)c1O (stereo not given in full)
GI50: 0.942 µM (active)

Compound: COC(=O)C1=Cc2cc(OC)c(O)cc2[C@@H](c2ccc(O)c(OC)c2)[C@@H]1C(=O)OC
GI50: > 100 µM (inactive)

Compound: O=C(c1ccccc1)c1c(CC(O)c2ccccn2)n(C(=O)c2ccccc2)c2ccccc12 (stereo not given)
GI50: 18.6 µM (inactive)

Compound: NC(=O)c1csc(CCCCCCc2nc(C(N)=O)cs2)n1
GI50: > 100 µM (inactive)

Compound: CSc1n[n+](C)cc(N)c1N
GI50: 36.1 µM (inactive)

Compound: O=C(Nc1ccc2c(c1)oc(=O)c1ccccc12)C(Cl)Cl
GI50: > 100 µM (inactive)

###

Test system: EKVX
Test: NCI tumour cell line growth inhibition, 48 h
Active and inactive are the calls of the source. No stated cut-off is given here; in the data, active = GI50 up to about 1.1 µM and inactive = higher.
Below, each entry is listed with its recorded GI50.
Measurement Label: GI50

Compound: CC(=O)OC1COC(n2c(=S)n(-c3ccccc3)c(=O)c3cc(Br)ccc32)C(OC(C)=O)C1OC(C)=O (stereo unspecified)
Result: > 100 µM (inactive)
--
Compound: Nc1ncnc2c1ncn2CC(O)CO (stereo unspecified)
Result: > 100 µM (inactive)
--
Compound: NCCCC[C@H](N)C(=O)Nc1ccc(-c2nc3ccccc3s2)cc1Cl
Result: 5.6 µM (inactive)
--
Compound: O=c1[nH]nc(Cc2ccccc2)[nH]1
Result: > 100 µM (inactive)
--
Compound: O=[N+]([O-])C(/C=C(\Cl)[N+](=O)[O-])=C(N1CCOCC1)N1CCOCC1
Result: > 100 µM (inactive)
--
Compound: N#CCCN(CCNc1ccccc1)C(=O)Nc1ccc(NC(=O)N(CCC#N)CCNc2ccccc2)cc1
Result: > 100 µM (inactive)
--
Compound: CCC(C)NC1=NCC(C)S1 (stereo unspecified)
Result: > 100 µM (inactive)
--
Compound: CCOC1=NC(C(F)(F)F)(C(F)(F)F)N=C(N2CCOCC2)O1
Result: > 100 µM (inactive)
--
Compound: NCc1cccc(O)c1O
Result: > 100 µM (inactive)
--
Compound: COc1ccc2c(C3(O)CCNCC3)c[nH]c2c1
Result: > 100 µM (inactive)
--
Compound: CSC(=S)OC1C(CO[Si](C)(C)C(C)(C)C)OC2OC(C)(C)OC21 (stereo unspecified)
Result: 20.3 µM (inactive)

Measured values drawn from ChEMBL document CHEMBL1201862 for this set.
